Recorded values, source ChEMBL document CHEMBL4616677.

target: Protein mono-ADP-ribosyltransferase PARP4 (Homo sapiens)
Sequence (Q9UKK3 whole entry): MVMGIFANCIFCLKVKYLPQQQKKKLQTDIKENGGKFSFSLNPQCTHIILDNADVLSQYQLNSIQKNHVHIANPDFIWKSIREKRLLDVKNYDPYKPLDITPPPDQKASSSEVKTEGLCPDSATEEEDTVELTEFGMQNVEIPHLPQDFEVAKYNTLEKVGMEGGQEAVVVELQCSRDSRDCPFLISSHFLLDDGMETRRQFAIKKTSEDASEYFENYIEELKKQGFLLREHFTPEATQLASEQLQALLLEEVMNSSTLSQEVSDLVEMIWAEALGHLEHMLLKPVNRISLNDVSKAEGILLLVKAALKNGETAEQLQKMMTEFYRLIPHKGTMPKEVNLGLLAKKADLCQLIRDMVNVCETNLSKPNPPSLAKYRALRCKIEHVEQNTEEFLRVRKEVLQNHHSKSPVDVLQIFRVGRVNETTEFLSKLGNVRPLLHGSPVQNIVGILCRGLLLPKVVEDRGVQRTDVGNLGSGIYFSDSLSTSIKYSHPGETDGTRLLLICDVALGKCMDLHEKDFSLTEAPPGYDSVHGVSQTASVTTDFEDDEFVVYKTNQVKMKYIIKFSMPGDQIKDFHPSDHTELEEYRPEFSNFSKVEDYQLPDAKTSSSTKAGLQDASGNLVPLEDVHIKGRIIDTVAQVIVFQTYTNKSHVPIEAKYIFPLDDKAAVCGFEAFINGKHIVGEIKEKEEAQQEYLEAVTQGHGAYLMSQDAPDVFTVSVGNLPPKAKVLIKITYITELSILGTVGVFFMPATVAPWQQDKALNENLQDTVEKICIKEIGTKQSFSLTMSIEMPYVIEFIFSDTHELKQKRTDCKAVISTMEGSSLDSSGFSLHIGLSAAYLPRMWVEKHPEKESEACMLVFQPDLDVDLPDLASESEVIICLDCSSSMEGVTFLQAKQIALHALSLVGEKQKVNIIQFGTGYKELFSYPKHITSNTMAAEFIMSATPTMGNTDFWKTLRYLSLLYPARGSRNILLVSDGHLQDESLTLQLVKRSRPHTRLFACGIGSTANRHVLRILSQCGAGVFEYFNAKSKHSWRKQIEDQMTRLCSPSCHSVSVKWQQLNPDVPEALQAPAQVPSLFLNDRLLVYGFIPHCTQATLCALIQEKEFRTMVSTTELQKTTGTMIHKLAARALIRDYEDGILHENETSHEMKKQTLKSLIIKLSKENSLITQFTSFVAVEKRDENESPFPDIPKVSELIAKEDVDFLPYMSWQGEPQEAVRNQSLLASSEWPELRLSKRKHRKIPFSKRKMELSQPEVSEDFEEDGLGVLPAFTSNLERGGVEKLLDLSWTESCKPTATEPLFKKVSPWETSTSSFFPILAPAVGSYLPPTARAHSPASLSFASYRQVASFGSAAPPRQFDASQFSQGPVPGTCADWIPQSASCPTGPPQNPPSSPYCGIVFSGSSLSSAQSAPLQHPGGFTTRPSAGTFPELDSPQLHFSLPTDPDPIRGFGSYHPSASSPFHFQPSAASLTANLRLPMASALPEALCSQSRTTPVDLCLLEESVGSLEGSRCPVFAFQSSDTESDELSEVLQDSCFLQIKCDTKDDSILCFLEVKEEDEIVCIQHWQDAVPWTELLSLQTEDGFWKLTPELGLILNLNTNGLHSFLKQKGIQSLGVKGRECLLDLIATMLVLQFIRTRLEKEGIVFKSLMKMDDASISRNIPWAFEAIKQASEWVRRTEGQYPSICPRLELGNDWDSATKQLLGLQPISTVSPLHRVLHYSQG
READOUT_LABEL: IC50

Exercise: Quick check: IC50 on Protein mono-ADP-ribosyltransferase PARP4 (Homo sapiens), item "N#Cc1ccc2c(c1)[nH]c(=O)n2[C@H]1C[C@H](c2nnc(-c3ccncn3)n2-c2ccccc2Cl)C1" ?
Key: > 10 µM

* * *

Quick reference: IC50 of the listed items.
Target: UniProt Q9Y6F1
Sequence (Q9Y6F1 whole entry): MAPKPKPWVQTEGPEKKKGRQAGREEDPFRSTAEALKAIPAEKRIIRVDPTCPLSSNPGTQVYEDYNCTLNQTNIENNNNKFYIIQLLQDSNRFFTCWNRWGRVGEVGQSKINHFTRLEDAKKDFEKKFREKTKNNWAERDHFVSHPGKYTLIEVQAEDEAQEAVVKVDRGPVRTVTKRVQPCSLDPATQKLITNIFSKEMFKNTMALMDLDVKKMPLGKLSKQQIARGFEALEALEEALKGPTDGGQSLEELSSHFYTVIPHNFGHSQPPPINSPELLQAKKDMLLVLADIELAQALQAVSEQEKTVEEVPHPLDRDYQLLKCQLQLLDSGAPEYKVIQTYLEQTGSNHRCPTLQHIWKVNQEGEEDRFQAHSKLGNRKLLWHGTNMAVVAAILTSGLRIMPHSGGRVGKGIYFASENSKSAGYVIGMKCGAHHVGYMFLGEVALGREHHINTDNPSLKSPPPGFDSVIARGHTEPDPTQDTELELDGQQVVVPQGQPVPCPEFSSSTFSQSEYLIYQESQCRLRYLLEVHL

- SMILES_NOTATION: "N#Cc1ccc2c(c1)[nH]c(=O)n2[C@H]1C[C@H](c2nnc(-c3ccncn3)n2-c2ccccc2Cl)C1"
  TARGET_OR_SYSTEM: "UniProt Q9Y6F1"
  IC50: "> 10 µM"

Exercise: Requested field: IC50. Item: "CCOc1ccc(-c2nnc([C@H]3C[C@H](NC(=O)c4ccccn4)C3)n2-c2ccccc2F)nc1"
Key: > 10 µM

* * *

target: Poly [ADP-ribose] polymerase 1 (Homo sapiens)
Sequence (P09874 whole entry): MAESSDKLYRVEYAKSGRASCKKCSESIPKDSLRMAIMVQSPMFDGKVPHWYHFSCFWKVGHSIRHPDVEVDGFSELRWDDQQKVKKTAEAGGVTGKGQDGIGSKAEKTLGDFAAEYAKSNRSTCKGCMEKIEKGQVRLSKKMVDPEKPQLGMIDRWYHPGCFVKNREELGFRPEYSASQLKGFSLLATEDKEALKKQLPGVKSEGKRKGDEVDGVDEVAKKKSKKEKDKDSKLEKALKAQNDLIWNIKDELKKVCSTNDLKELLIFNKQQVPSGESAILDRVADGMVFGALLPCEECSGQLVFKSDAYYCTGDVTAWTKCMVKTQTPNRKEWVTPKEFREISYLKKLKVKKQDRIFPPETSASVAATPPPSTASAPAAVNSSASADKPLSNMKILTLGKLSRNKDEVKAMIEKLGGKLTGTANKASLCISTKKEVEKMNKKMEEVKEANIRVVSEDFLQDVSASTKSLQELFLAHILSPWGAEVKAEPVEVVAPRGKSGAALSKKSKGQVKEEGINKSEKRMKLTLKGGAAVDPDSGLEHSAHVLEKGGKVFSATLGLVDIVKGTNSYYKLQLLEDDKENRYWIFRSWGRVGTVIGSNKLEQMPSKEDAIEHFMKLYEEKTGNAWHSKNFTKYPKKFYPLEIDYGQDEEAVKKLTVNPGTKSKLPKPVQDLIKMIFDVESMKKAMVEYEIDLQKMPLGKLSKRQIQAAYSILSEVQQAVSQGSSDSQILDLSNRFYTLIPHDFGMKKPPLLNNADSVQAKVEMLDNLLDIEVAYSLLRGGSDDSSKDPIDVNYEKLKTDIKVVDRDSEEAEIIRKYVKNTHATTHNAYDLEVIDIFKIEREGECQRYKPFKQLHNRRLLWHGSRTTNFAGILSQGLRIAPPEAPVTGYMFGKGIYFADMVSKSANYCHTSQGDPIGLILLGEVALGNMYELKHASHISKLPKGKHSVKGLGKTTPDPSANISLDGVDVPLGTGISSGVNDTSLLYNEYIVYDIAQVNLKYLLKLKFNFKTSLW
READOUT_LABEL: IC50

Exercise: Find IC50 (Poly [ADP-ribose] polymerase 1 (Homo sapiens)) for the entry "N#Cc1ccc2c(c1)[nH]c(=O)n2[C@H]1C[C@H](c2nnc(-c3ccncn3)n2-c2ccccc2Cl)C1"
Key: > 10 µM
